- experimental-target: T1, recombinant human ASM protein (human, UniProt P17405 47-630)
- T1 construct: Recombinant human ASM in solution; also called acid sphingomyelinase (ASM) protein
- T1 sequence: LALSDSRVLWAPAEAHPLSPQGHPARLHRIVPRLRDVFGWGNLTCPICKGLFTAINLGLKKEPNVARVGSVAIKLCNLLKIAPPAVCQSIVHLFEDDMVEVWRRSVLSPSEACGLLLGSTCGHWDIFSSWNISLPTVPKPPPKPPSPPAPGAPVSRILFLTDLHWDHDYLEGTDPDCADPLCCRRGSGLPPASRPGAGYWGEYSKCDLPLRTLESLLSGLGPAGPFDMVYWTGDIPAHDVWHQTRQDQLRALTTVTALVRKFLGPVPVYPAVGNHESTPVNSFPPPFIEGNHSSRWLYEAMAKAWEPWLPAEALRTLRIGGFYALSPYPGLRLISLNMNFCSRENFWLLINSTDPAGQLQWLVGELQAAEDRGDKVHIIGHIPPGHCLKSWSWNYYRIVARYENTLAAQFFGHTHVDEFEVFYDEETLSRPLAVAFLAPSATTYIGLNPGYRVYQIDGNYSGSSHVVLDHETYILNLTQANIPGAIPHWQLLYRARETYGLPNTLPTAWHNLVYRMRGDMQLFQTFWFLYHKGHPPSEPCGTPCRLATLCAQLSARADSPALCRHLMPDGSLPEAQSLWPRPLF
- experimental-details: BLI (Octet), antibody on AHC sensor
assay-readout: kon (M⁻¹ s⁻¹)

binder="#9104a-E1 (antibody, human IgG4 S228P, lambda, V domains shown, VH of #9104v-H10 with VL of #9104v-L65; full-length IgG, lambda) VH: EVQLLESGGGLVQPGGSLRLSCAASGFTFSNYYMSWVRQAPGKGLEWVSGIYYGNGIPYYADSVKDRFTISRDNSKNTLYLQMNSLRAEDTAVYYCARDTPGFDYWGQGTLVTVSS VL: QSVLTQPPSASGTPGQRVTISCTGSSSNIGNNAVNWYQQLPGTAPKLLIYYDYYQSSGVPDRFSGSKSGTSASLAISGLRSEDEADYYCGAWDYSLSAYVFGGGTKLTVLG" value=215000
binder="#9104a-D8 (antibody, human IgG4 S228P, lambda, V domains shown, VH of #9104v-H33 with VL of #9104v-L64; full-length IgG, lambda) VH: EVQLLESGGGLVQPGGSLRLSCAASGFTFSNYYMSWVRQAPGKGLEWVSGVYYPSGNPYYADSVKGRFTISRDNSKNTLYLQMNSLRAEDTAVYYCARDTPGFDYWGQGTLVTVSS VL: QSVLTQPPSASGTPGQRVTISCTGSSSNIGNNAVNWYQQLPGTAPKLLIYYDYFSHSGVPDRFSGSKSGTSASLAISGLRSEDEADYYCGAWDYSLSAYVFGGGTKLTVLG" value=188000
binder="#9104a-D4 (antibody, human IgG4 S228P, lambda, V domains shown, VH of #9104v-H17 with VL of #9104v-L64; full-length IgG, lambda) VH: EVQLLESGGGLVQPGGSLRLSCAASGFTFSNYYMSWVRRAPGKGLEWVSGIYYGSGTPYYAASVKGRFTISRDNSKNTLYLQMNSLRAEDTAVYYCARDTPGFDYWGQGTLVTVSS VL: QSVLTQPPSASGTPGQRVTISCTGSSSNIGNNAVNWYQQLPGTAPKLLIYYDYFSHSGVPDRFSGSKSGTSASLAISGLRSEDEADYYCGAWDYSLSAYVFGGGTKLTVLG" value=248000
